Assay: Particle size and PDI of lipid nanoparticles by dynamic light scattering
Assay type: physicochemical
Settings: lipid nanoparticles with luciferase mRNA; ionizable lipid/cholesterol/DSPC/DMG-PEG2000 50/38.5/10/1.5 mol%
Recorded Metric: Particle size (nm)

>>> assay_result("CCCCCCCCCCCOC(=O)CCCCCN(CCO)CCCCCCC(C)(C)C(=O)OCC(CCCCCCC)CCCCCCC [14a]")
90.99
>>> assay_result("CCCCCCCCCCC(=O)OCC(C)(C)CCCCCN(CCCCCCOC(=O)OC(CCCCCCCCC)CCCCCCCCC)C(=O)SCCCCN(C)C [46b]")
98.91
>>> assay_result("CCCCCCCCCC(=O)OCC1(CCCCCN(CCCCO)CCCCCCCC(=O)OC(CCCCCCCCC)CCCCCCCCC)CC1 [24b]")
83.05
>>> assay_result("CCCCCCCCCCCOC(=O)CCCCCN(CCCCO)CCCCCCC(C)(C)C(=O)OC(CCCCCCCC)CCCCCCCC [12a]")
104.85
>>> assay_result("CCCCCCCCCC(=O)OCC(C)(C)CCCCCN(CCCO)CCCCCCCC(=O)OC(CCCCCCCC)CCCCCCCC")
104.61
>>> assay_result("CCCCCCCCCCOC(=O)CCCCC(C)(C)CCN(CCCO)CCCCCCCC(=O)OC(CCCCCCCCC)CCCCCCCCC [66a]")
105.77
>>> assay_result("CCCCCCCCCOC(=O)C(C)(C)CCCCCCN(CCO)CCCCCCOC(=O)OCCC(CCCCCC)CCCCCC [41a]")
114.03
>>> assay_result("CCCCCCCC(CCCCCCC)CCOC(=O)OCCCCCCN(CCO)CCCCCC(C)(C)COC(=O)CCC(CCCCCC)CCCCCC [37b]")
83.72
>>> assay_result("CCCCCCCCCCOC(=O)OCCCCCCN(CCO)CCCCCC(C)(C)COC(=O)CC(CCCCCCC)CCCCCCC [27b]")
91.10
>>> assay_result("CCCCCCCCCCC(=O)OCCC(C)(C)CCCCN(CCO)CCCCCCCC(=O)OC(CCCCCCCCC)CCCCCCCCC [54b]")
81.37
>>> assay_result("CCCCCCCCCCCOC(=O)CCCCCN(CCO)CCCCCCC1(C(=O)OC(CCCCCCCC)CCCCCCCC)CCCC1 [22a]")
99.48
>>> assay_result("CCCCCCCCCOC(=O)CCCCC(C)(C)CCN(CCO)CCCCCCC(=O)OCC(CCCCCCCC)CCCCCCCC [70a]")
86.08

====

Test: Encapsulation efficiency of lipid nanoparticles (Quant-it RiboGreen RNA Assay)
Type: physicochemical
Conditions: lipid nanoparticles with luciferase mRNA
Recorded Metric: Encapsulation efficiency (%)

>>> assay_result("CCCCCCCCCC(=O)OCCCC(C)(C)CCCN(CCCCO)CCCCCCCCC(=O)OCC(CCCCCC)CCCCCC [113b]")
88.21
>>> assay_result("CCCCCCCCCCC(=O)OCC1(CCCCCN(CCO)CCCCCCCC(=O)OC(CCCCCCCCC)CCCCCCCCC)CC1 [21b]")
92.37
>>> assay_result("CCCCCCCCCCOC(=O)CCCCC(C)(C)CCN(CCCO)CCCCCCCC(=O)OC(CCCCCCCCC)CCCCCCCCC [66a]")
92.88
>>> assay_result("CCCCCCCCCCC(=O)OCCCCC(C)(C)CCN(CCO)CCCCCCCC(=O)OCCC(CCCCCCC)CCCCCCC [72b]")
95.13
>>> assay_result("CCCCCCCCCCOC(=O)OCCCCCCN(CCO)CCCCCC(C)(C)COC(=O)CC(CCCCCCC)CCCCCCC [27b]")
97.83
>>> assay_result("CCCCCCCCCCOC(=O)CCCCC(C)(C)CCN(CCCCO)CCCCCCCC(=O)OC(CCCCCCCCC)CCCCCCCCC [67a]")
91.57
>>> assay_result("CCCCCCCCCOC(=O)OCCCCCCN(CCO)CCCCCCC(C)(C)C(=O)OC(CCCCCCCC)CCCCCCCC [30a]")
86.94
>>> assay_result("CCCCCCCCCC(=O)OCC(C)(C)CCCCCN(CCO)CCCCCCCC(=O)OC(CCCCCCCC)CCCCCCCC")
89.89
>>> assay_result("CCCCCCCCC(CCCCCCCC)OC(=O)C(C)(C)CCCCCCN(CCO)CCCCCCCOC(=O)CCCC(CCCCC)CCCCC")
88.68
>>> assay_result("CCCCCCCCCCC(=O)OCC(C)(C)CCCCCN(CCCO)CCCCCCC(=O)OCC(CCCCCCCCC)CCCCCCCCC [85b]")
95.44

====

Test: Particle size and PDI of lipid nanoparticles by dynamic light scattering
Assay type: physicochemical
Conditions: lipid nanoparticles with luciferase mRNA; ionizable lipid/cholesterol/DSPC/DMG-PEG2000 50/38.5/10/1.5 mol%
Recorded Metric: Particle size (nm)

>>> assay_result("CCCCCCCCCC(=O)OCC(C)(C)CCCCCN(CCCO)CCCCCCC(=O)OCCC(CCCCCCC)CCCCCCC [77b]")
93.16
>>> assay_result("CCCCCCCCCCC(=O)OCCC(C)(C)CCCCN(CCCO)CCCCCCCC(=O)OCC(CCCCCCCC)CCCCCCCC [100b]")
101.50
>>> assay_result("CCCCCCCCCC(=O)OCC(C)(C)CCCCCN(CCCCO)CCCCCCC(=O)OCCC(CCCCCCC)CCCCCCC [70b]")
96.20
>>> assay_result("CCCCC#CCCCOC(=O)CCCCCCCN(CCO)CCCCCCC(C)(C)C(=O)OC(CCCCCCCC)CCCCCCCC [56a]")
86.37
>>> assay_result("CCCCCCCCCCC(=O)OCCCCC(C)(C)CCN(CCO)CCCCCCCC(=O)OCCC(CCCCCCC)CCCCCCC [72b]")
92.45
>>> assay_result("CCCCCCCCCC(=O)OCC(C)(C)CCCCCN(CCCCO)CCCCCCC(=O)OCC(CCCCCCCC)CCCCCCCC [69b]")
99.05
>>> assay_result("CCCCCCCCCCCC(=O)OCC(C)(C)CCCCCN(CCO)CCCCCCCCC(=O)OCC(CCCCCCCC)CCCCCCCC [98b]")
87.99
>>> assay_result("CCCCCCCCCOC(=O)CC(C)(C)CCCCCN(CCO)CCCCCCOC(=O)OCC(CCCCCCC)CCCCCCC [45a]")
114.73
>>> assay_result("CCCCCCCCCCC(=O)OCCCC(C)(C)CCCN(CCCCO)CCCCCCCCC(=O)OCC(CCCCCCC)CCCCCCC [116b]")
120.13
>>> assay_result("CCCCCCCCCC(=O)OCCCCCCCN(CCO)CCCCC(C)(C)COC(=O)OCC(CCCCCCC)CCCCCCC [25b]")
94.39

Hey, just so you know, these numbers are from patent US12617752B2.
